target: MKK4 (Homo sapiens, UniProt P45985)
Sequence (P45985 whole entry): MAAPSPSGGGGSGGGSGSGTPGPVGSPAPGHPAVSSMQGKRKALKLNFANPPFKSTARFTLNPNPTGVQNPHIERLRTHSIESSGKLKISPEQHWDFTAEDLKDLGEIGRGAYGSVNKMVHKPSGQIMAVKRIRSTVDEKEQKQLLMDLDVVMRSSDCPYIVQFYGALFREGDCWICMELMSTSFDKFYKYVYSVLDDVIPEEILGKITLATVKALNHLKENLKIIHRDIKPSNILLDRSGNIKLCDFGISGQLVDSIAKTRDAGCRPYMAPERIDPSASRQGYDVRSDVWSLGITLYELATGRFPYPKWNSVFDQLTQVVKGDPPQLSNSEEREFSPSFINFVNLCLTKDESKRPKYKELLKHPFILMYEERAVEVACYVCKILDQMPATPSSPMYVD
Measure name: IC50

## Task Sample CCCS(=O)(=O)Nc1ccc(F)c(C(=O)c2c[nH]c3ncc(-c4ccccc4OC)cc23)c1F — what was its IC50?
## Result 100 to 1000 nM

## Task Now the compound CS(=O)(=O)Nc1c(F)ccc(C(=O)c2c[nH]c3ncc(-c4cccnc4)cc23)c1F
## Result 100 to 1000 nM

## Task How about CCCS(=O)(=O)Nc1c(F)ccc(C(=O)c2c[nH]c3ncc(-c4cnc(C)nc4Cl)cc23)c1F ?
## Result < 100 nM

## Task Repeat with CCCS(=O)(=O)Nc1c(F)ccc(C(=O)c2c[nH]c3ncc(-c4cccc(C(=O)O)c4)cc23)c1F
## Result < 100 nM

## Task And CCCS(=O)(=O)Nc1c(F)ccc(C(=O)c2c[nH]c3ncc(-c4cnc(NCCO)nc4)cc23)c1F ?
## Result < 100 nM

## Task Can you handle O=C(c1cccc(NS(=O)(=O)Cc2ccccc2)c1F)c1c[nH]c2ncc(-c3cnc(C4CC4)nc3)cc12 next?
## Result 100 to 1000 nM

## Task Continue with CCCS(=O)(=O)Nc1ccc(F)c(C(=O)c2c[nH]c3ncc(-c4cnc[nH]4)cc23)c1F
## Result 100 to 1000 nM

## Task Follow-up item: CCCS(=O)(=O)Nc1ccc(F)c(C(=O)c2c[nH]c3ncc(N4CCC(O)CC4)cc23)c1F
## Result 1000 to 10000 nM

## Task Let us now turn to CS(=O)(=O)Nc1c(F)ccc(C(=O)c2c[nH]c3ncc(-c4cccc5ccccc45)cc23)c1F
## Result 100 to 1000 nM

## Task Same read-out for CCCS(=O)(=O)Nc1ccc(F)c(C(=O)c2c[nH]c3ncc(-c4ccc(C(N)=O)cc4)cc23)c1F ?
## Result 100 to 1000 nM

## Task Check Cc1cc(F)ncc1-c1cnc2[nH]cc(C(=O)c3ccc(F)c(NS(=O)(=O)CCC(F)(F)F)c3F)c2c1 too.
## Result < 100 nM

## Task Request: CCCS(=O)(=O)Nc1c(F)ccc(C(=O)c2c[nH]c3ncc(-c4ccc(F)cc4C)cc23)c1F
## Result < 100 nM

## Task Also need CCCS(=O)(=O)Nc1c(F)ccc(C(=O)c2c[nH]c3ncc(-c4cnc(C(F)(F)F)nc4)cc23)c1F , thanks.
## Result 100 to 1000 nM

## Task Lookup CCCS(=O)(=O)Nc1ccc(F)c(C(=O)c2c[nH]c3ncc(-c4cccnc4)cc23)c1F
## Result 100 to 1000 nM

## Task Consider next the compound CCCS(=O)(=O)Nc1ccc(F)c(C(=O)c2c[nH]c3ncc(-c4ccc(N=S(C)(C)=O)cc4)cc23)c1F in the same way.
## Result 100 to 1000 nM

## Task Further, for CCCS(=O)(=O)Nc1ccc(F)c(C(=O)c2c[nH]c3ncc(-c4ccoc4)cc23)c1F ?
## Result 100 to 1000 nM

## Task What do you have for CCCS(=O)(=O)Nc1ccc(F)c(C(=O)c2c[nH]c3ncc(-c4ccn[nH]4)cc23)c1F ?
## Result 100 to 1000 nM

## Task Please answer likewise for O=C(c1cccc(NS(=O)(=O)Cc2ccccc2)c1F)c1c[nH]c2ncc(-c3ccc(Cl)cc3)cc12
## Result 100 to 1000 nM

## Task // repeat for O=C(c1cccc(NS(=O)(=O)Cc2ccccc2)c1F)c1c[nH]c2ncc(-c3ccncc3)cc12 and report
## Result 100 to 1000 nM

## Task Do the same for O=C(c1ccc(F)c(NS(=O)(=O)CCC(F)(F)F)c1F)c1c[nH]c2ncc(-c3cnc(N4CCCC4)nc3)cc12 please
## Result < 100 nM

## Task Thanks! And O=C(c1ccc(F)c(NS(=O)(=O)CCC(F)(F)F)c1F)c1c[nH]c2ncc(-c3cnc(N4CCCCC4)nc3)cc12 ?
## Result 100 to 1000 nM

## Task Please answer likewise for CCCS(=O)(=O)Nc1c(F)ccc(C(=O)c2c[nH]c3ncc(-c4ccc(NC)nc4)cc23)c1F
## Result < 100 nM

## Task Another: CCCS(=O)(=O)Nc1c(F)ccc(C(=O)c2c[nH]c3ncc(-c4cnc(N5CCNCC5)nc4)cc23)c1F
## Result 100 to 1000 nM

## Task Next entry: CCCS(=O)(=O)Nc1c(F)ccc(C(=O)c2c[nH]c3ncc(-c4ccc(N5CCC5)nc4)cc23)c1F
## Result 100 to 1000 nM

## Task Note, next up: O=C(c1ccc(F)c(NS(=O)(=O)CCC(F)(F)F)c1F)c1c[nH]c2ncc(-c3cnc(NC4CC4)nc3)cc12
## Result < 100 nM

## Task Moving on to O=C(c1cccc(NS(=O)(=O)Cc2ccccc2)c1F)c1c[nH]c2ncc(-c3cccnc3)cc12
## Result 100 to 1000 nM

## Task Next compound up: O=C(c1ccc(F)c(NS(=O)(=O)CCC(F)(F)F)c1F)c1c[nH]c2ncc(-c3ccc(Cl)cc3)cc12
## Result < 100 nM

## Task Continue with CCCCS(=O)(=O)Nc1c(F)ccc(C(=O)c2c[nH]c3ncc(-c4ccc(F)cc4C)cc23)c1F
## Result < 100 nM

## Task Item: CCCS(=O)(=O)Nc1c(F)ccc(C(=O)c2c[nH]c3ncc(-c4cnc(C(C)C)nc4)cc23)c1F
## Result < 100 nM
